target: FGFR2 (Homo sapiens); test: FGFR wild type enzyme assay (HTRF KinEASE-TK), FGFR2; settings: Enz FGFR2 (nM), FGFR2 wild type enzyme assay
Sequence (P21802 399-821 limits assumed): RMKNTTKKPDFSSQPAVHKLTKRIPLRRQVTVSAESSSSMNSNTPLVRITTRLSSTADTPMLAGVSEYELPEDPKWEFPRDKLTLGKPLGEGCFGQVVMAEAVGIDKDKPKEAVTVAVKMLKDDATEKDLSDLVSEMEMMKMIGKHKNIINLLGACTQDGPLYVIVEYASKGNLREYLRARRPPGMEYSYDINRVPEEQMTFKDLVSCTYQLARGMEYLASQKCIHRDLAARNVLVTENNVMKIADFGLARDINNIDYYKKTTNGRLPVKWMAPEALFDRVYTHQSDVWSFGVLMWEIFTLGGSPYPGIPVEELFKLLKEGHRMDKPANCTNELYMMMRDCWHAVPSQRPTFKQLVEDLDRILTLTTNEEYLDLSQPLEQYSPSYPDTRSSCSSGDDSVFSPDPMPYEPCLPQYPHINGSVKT
measured_attribute: IC50 (nM)

molecule=CC(=O)N1CC[C@H](n2cc(-c3cc(Sc4ncccc4F)c4c(C#N)cnn4c3)cn2)C1 scale_unit=nM test_value=1

(I) Cc1ccc(C#N)c(Sc2cc(-c3cnn(C4CCN(C)CC4)c3C)cn3ncc(C#N)c23)c1
(II) CC1(C)C[C@@H](n2cc(-c3cc(Sc4ccccc4C#N)c4c(C#N)cnn4c3)cn2)CN1
Which shows the larger IC50 value: I or II ? Respond with the label that goes with your answer. I

Origin of the recorded values: patent US20240270741A1
